- measured-target: USP22 C171 (Q9UPT9) (Homo sapiens, UniProt Q9UPT9)
- Sequence (Q9UPT9 whole entry): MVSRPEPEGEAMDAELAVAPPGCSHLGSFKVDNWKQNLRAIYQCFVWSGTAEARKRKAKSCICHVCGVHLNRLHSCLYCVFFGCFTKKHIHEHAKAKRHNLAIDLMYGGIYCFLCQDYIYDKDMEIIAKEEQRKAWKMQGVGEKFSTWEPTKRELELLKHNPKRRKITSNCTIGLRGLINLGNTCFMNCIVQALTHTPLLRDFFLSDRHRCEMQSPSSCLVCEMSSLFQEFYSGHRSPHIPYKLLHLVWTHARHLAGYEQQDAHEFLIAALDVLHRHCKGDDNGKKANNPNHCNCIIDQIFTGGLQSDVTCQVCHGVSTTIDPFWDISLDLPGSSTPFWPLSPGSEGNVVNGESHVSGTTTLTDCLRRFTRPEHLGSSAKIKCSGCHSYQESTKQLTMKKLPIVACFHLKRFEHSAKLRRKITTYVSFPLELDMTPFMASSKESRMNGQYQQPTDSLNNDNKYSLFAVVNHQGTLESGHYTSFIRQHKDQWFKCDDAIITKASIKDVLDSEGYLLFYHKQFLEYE
- method-description: Competitive isoTOP-ABPP, cell lysates
- Assay type: binding
- protocol-conditions: 500 μm in-vitro ramos
Readings of isoTOP-ABPP ratio (reactivity profile), Q9UPT9_C171 for the listed compounds
measurement-type: isoTOP-ABPP ratio (reactivity profile), Q9UPT9_C171

> print(dat)
                                   compound                           measured.target  numeric.readout
1         CC(C)CCOCCNC(=O)CCl [compound 27]  USP22 C171 (Q9UPT9) (Homo sapiens, UniProt Q9UPT9)              1.2
2            O=C(CCl)N1CCOCC1 [compound 22]  USP22 C171 (Q9UPT9) (Homo sapiens, UniProt Q9UPT9)              1.1
3  O=C(CCl)N1CCC(C(O)(c2ccccc2)c2ccccc2)CC1 [compound 20]  USP22 C171 (Q9UPT9) (Homo sapiens, UniProt Q9UPT9)             20.0
4      COc1ccccc1OCCNC(=O)CCl [compound 28]  USP22 C171 (Q9UPT9) (Homo sapiens, UniProt Q9UPT9)              1.3
5  CC(Br)C(=O)Nc1cc(C(F)(F)F)cc(C(F)(F)F)c1 (stereo not drawn) [compound 24]  USP22 C171 (Q9UPT9) (Homo sapiens, UniProt Q9UPT9)              3.1
6  O=C(/C=C/c1ccccc1)Nc1cc(C(F)(F)F)cc(C(F)(F)F)c1 [compound 26]  USP22 C171 (Q9UPT9) (Homo sapiens, UniProt Q9UPT9)              1.0

###

- measured-target: UBE2S C118 (Q16763) (Homo sapiens)
- Sequence (Q16763 1-222): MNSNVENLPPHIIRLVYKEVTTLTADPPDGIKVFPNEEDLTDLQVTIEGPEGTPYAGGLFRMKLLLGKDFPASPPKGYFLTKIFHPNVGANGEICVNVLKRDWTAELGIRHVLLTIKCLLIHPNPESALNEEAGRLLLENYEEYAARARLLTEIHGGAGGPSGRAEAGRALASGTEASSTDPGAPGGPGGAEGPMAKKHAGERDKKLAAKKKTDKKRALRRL
- method-description: Competitive isoTOP-ABPP, cell lysates
- Assay type: binding
- protocol-conditions: 500 μm, in-vitro_ramos
Readings of isoTOP-ABPP reactivity profile ratio, Q16763_C118 for the listed compounds
measurement-type: isoTOP-ABPP reactivity profile ratio, Q16763_C118

> print(dat)
                                   compound  numeric.readout
1  C=CC(=O)N1CCC(Cc2ccccc2)CC1 [compound 53]              0.8
2  N#CC(=Cc1ccc(-c2ccccc2Cl)o1)C(N)=O [compound 42]              0.8
3     O=C(CCl)Nc1cccc2ncccc12 [compound 51]              0.9
4   COc1cc(NC(=O)CCl)cc(OC)c1 [compound 43]              1.0

###

- measured-target: PRMT1 C109 (Q99873) (Homo sapiens)
- Sequence (Q99873 whole entry): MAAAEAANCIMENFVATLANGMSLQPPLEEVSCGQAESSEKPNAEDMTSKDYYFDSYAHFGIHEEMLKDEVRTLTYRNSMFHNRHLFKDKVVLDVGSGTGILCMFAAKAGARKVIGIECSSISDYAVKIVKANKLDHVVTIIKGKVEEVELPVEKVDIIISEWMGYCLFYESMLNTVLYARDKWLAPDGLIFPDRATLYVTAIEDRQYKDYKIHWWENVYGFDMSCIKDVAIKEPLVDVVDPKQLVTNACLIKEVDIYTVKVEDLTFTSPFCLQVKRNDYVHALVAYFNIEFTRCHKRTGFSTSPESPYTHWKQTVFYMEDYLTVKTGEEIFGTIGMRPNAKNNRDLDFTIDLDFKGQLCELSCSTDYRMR
- method-description: Competitive isoTOP-ABPP, cell lysates
- Type: binding
- protocol-conditions: 500 μm in-vitro ramos
measurement-type: isoTOP-ABPP ratio (reactivity profile), Q99873_C109

> print(dat)
                                    molecule                     measured.target  numeric.readout
 1  C=CC(=O)N(Cc1cccnc1)c1ccc(Oc2ccccc2)c(C(F)(F)F)c1  PRMT1 C109 (Q99873) (Homo sapiens)              1.2
 2      CCN(CC)c1ccc(S(N)(=O)=O)cc1NC(=O)CCl  PRMT1 C109 (Q99873) (Homo sapiens)              1.1
 3  N#C/C(=C\c1cc(C(F)(F)F)cc(C(F)(F)F)c1)C(N)=O  PRMT1 C109 (Q99873) (Homo sapiens)              1.0
 4  O=C(CCl)N1CCC(C(O)(c2ccccc2)c2ccccc2)CC1  PRMT1 C109 (Q99873) (Homo sapiens)              2.2
 5             O=C(CCl)NC12CC3CC(CC(C3)C1)C2  PRMT1 C109 (Q99873) (Homo sapiens)              1.5
 6                          O=C(CCl)N1CCOCC1  PRMT1 C109 (Q99873) (Homo sapiens)              1.0
 7  O=C(/C=C/c1ccccc1)Nc1cc(C(F)(F)F)cc(C(F)(F)F)c1  PRMT1 C109 (Q99873) (Homo sapiens)              0.9
 8          O=C(CCl)N1CCN(CC(=O)N2CCOCC2)CC1  PRMT1 C109 (Q99873) (Homo sapiens)              0.9
 9                       CC(C)CCOCCNC(=O)CCl  PRMT1 C109 (Q99873) (Homo sapiens)              1.0
10  CC(Br)C(=O)Nc1cc(C(F)(F)F)cc(C(F)(F)F)c1 (centres unmarked)  PRMT1 C109 (Q99873) (Homo sapiens)              1.0
11                    COc1ccccc1OCCNC(=O)CCl  PRMT1 C109 (Q99873) (Homo sapiens)              1.1

Origin of the recorded values: patent US10670605B2
